Please provide measured ED50 for the entries that follow.
- System: tryptamine-induced bilateral tonic seizures and hyperaemia of the ears
- runDescription: Combined apomorphine-, tryptamine- and norepinephrine test in rats: tryptamine (TRY) part
- Assay type: in vivo, adult male Wistar rats
- conditionsUsed: Rattus norvegicus, 1.5 h; compound subcutaneously or orally; 40 mg/kg tryptamine i.v. at 90 minutes; hyperaemia of the ears; dose which protects 50% of the animals; read-out: Combined test in rats; ED₅₀ in mg/kg (TRY)-hyperaemia

State, for tryptamine-induced bilateral tonic seizures and hyperaemia of the ears, measured ED50 of the compound listed here: Cc1nc2sccn2c(=O)c1CCN1CCN(c2n[nH]c3cc(F)ccc23)CC1
0.00125 mg/kg

State, for tryptamine-induced bilateral tonic seizures and hyperaemia of the ears, measured ED50 of the compound listed here: Cc1nc2sccn2c(=O)c1CCN1CCN(c2noc3cc(F)ccc23)CC1
< 0.01 mg/kg

State, for tryptamine-induced bilateral tonic seizures and hyperaemia of the ears, measured ED50 of the compound listed here: Cc1nc2n(c(=O)c1CCN1CCN(c3noc4ccccc34)CC1)CCS2
0.00125 mg/kg

State, for tryptamine-induced bilateral tonic seizures and hyperaemia of the ears, measured ED50 of the compound listed here: Cc1nc2scc(C)n2c(=O)c1CCN1CCN(c2n[nH]c3cc(F)ccc23)CC1
0.00031 mg/kg

State, for tryptamine-induced bilateral tonic seizures and hyperaemia of the ears, measured ED50 of the compound listed here: Cc1nc2n(c(=O)c1CCN1CCN(c3noc4cc(F)ccc34)CC1)CCCC2
0.005 mg/kg

State, for tryptamine-induced bilateral tonic seizures and hyperaemia of the ears, measured ED50 of the compound listed here: Cc1nc2n(c(=O)c1CCN1CCN(c3noc4cc(F)ccc34)CC1)CCCS2
≤ 0.01 mg/kg

State, for tryptamine-induced bilateral tonic seizures and hyperaemia of the ears, measured ED50 of the compound listed here: Cc1nc2ccccn2c(=O)c1CCN1CCN(c2n[nH]c3cc(F)ccc23)CC1
0.005 mg/kg

State, for tryptamine-induced bilateral tonic seizures and hyperaemia of the ears, measured ED50 of the compound listed here: Cc1nc2sccn2c(=O)c1CCN1CCN(c2n[nH]c3ccccc23)CC1
0.005 mg/kg

State, for tryptamine-induced bilateral tonic seizures and hyperaemia of the ears, measured ED50 of the compound listed here: Cc1nc2scc(C)n2c(=O)c1CCN1CCN(c2n[nH]c3ccccc23)CC1
0.00063 mg/kg

State, for tryptamine-induced bilateral tonic seizures and hyperaemia of the ears, measured ED50 of the compound listed here: Cc1nc2ccccn2c(=O)c1CCN1CCN(c2n[nH]c3ccccc23)CC1
0.005 mg/kg

State, for tryptamine-induced bilateral tonic seizures and hyperaemia of the ears, measured ED50 of the compound listed here: Cc1nc2n(c(=O)c1CCN1CCN(c3nsc4ccccc34)CC1)CCS2
0.00125 mg/kg

State, for tryptamine-induced bilateral tonic seizures and hyperaemia of the ears, measured ED50 of the compound listed here: Cc1nc2ccccn2c(=O)c1CCN1CCN(c2nsc3ccccc23)CC1
0.00031 mg/kg

State, for tryptamine-induced bilateral tonic seizures and hyperaemia of the ears, measured ED50 of the compound listed here: Cc1nc2n(c(=O)c1CCN1CCN(c3n[nH]c4cc(F)ccc34)CC1)CCCC2C (centres unmarked)
0.005 mg/kg

State, for tryptamine-induced bilateral tonic seizures and hyperaemia of the ears, measured ED50 of the compound listed here: Cc1nc2sccn2c(=O)c1CCN1CCN(c2noc3ccccc23)CC1
0.00031 mg/kg

State, for tryptamine-induced bilateral tonic seizures and hyperaemia of the ears, measured ED50 of the compound listed here: Cc1nc2c(C)cccn2c(=O)c1CCN1CCN(c2noc3ccccc23)CC1
0.02 mg/kg

State, for tryptamine-induced bilateral tonic seizures and hyperaemia of the ears, measured ED50 of the compound listed here: Cc1nc2scc(C)n2c(=O)c1CCN1CCN(c2noc3cc(F)ccc23)CC1
< 0.04 mg/kg

State, for tryptamine-induced bilateral tonic seizures and hyperaemia of the ears, measured ED50 of the compound listed here: Cc1nc2c(C)cccn2c(=O)c1CCN1CCN(c2n[nH]c3cc(F)ccc23)CC1
0.000125 mg/kg

State, for tryptamine-induced bilateral tonic seizures and hyperaemia of the ears, measured ED50 of the compound listed here: Cc1nc2n(c(=O)c1CCN1CCN(c3noc4cc(F)ccc34)CC1)CCS2
0.00125 mg/kg

State, for tryptamine-induced bilateral tonic seizures and hyperaemia of the ears, measured ED50 of the compound listed here: Cc1nc2ccccn2c(=O)c1CCN1CCN(c2noc3cc(F)ccc23)CC1
0.005 mg/kg

State, for tryptamine-induced bilateral tonic seizures and hyperaemia of the ears, measured ED50 of the compound listed here: Cc1nc2n(c(=O)c1CCN1CCN(c3nsc4ccccc34)CC1)CCCC2C (centres unmarked)
0.0025 mg/kg

---

- System: apomorphine-induced phenomena: agitation and stereotypic chewing
- runDescription: Combined apomorphine-, tryptamine- and norepinephrine test in rats: apomorphine (APO) part
- Assay type: in vivo, adult male Wistar rats
- conditionsUsed: Rattus norvegicus; compound subcutaneously or orally; 1.25 mg/kg apomorphine i.v. at 30 minutes, observed 1 hour; dose which protects 50% of the animals; read-out: Combined test in rats; ED₅₀ in mg/kg (APO)
Please provide measured ED50 for the entries that follow.
Reply numerically in mg/kg, unit not repeated.

State, for apomorphine-induced phenomena: agitation and stereotypic chewing, measured ED50 of the molecule listed here: Cc1nc2n(c(=O)c1CCN1CCN(c3noc4cc(F)ccc34)CC1)CCCS2
0.08

State, for apomorphine-induced phenomena: agitation and stereotypic chewing, measured ED50 of the molecule listed here: Cc1nc2n(c(=O)c1CCN1CCN(c3noc4cc(F)ccc34)CC1)CCCC2
0.08

State, for apomorphine-induced phenomena: agitation and stereotypic chewing, measured ED50 of the molecule listed here: Cc1nc2ccccn2c(=O)c1CCN1CCN(c2n[nH]c3cc(F)ccc23)CC1
0.08

State, for apomorphine-induced phenomena: agitation and stereotypic chewing, measured ED50 of the molecule listed here: Cc1nc2ccccn2c(=O)c1CCN1CCN(c2noc3cc(F)ccc23)CC1
0.04

State, for apomorphine-induced phenomena: agitation and stereotypic chewing, measured ED50 of the molecule listed here: Cc1nc2c(C)cccn2c(=O)c1CCN1CCN(c2n[nH]c3cc(F)ccc23)CC1
0.04

State, for apomorphine-induced phenomena: agitation and stereotypic chewing, measured ED50 of the molecule listed here: Cc1nc2sccn2c(=O)c1CCN1CCN(c2noc3cc(F)ccc23)CC1
0.02

State, for apomorphine-induced phenomena: agitation and stereotypic chewing, measured ED50 of the molecule listed here: Cc1nc2sccn2c(=O)c1CCN1CCN(c2n[nH]c3cc(F)ccc23)CC1
0.02

State, for apomorphine-induced phenomena: agitation and stereotypic chewing, measured ED50 of the molecule listed here: Cc1nc2n(c(=O)c1CCN1CCN(c3noc4ccccc34)CC1)CCS2
0.03

State, for apomorphine-induced phenomena: agitation and stereotypic chewing, measured ED50 of the molecule listed here: Cc1nc2n(c(=O)c1CCN1CCN(c3noc4cc(F)ccc34)CC1)CCS2
0.02

State, for apomorphine-induced phenomena: agitation and stereotypic chewing, measured ED50 of the molecule listed here: Cc1nc2n(c(=O)c1CCN1CCN(c3nsc4ccccc34)CC1)CCS2
0.08

State, for apomorphine-induced phenomena: agitation and stereotypic chewing, measured ED50 of the molecule listed here: Cc1nc2n(c(=O)c1CCN1CCN(c3n[nH]c4cc(F)ccc34)CC1)CCCC2C (centres unmarked)
0.08

State, for apomorphine-induced phenomena: agitation and stereotypic chewing, measured ED50 of the molecule listed here: Cc1nc2n(c(=O)c1CCN1CCN(c3nsc4ccccc34)CC1)CCCC2C (centres unmarked)
0.04

State, for apomorphine-induced phenomena: agitation and stereotypic chewing, measured ED50 of the molecule listed here: Cc1nc2scc(C)n2c(=O)c1CCN1CCN(c2noc3cc(F)ccc23)CC1
0.08

State, for apomorphine-induced phenomena: agitation and stereotypic chewing, measured ED50 of the molecule listed here: Cc1nc2scc(C)n2c(=O)c1CCN1CCN(c2n[nH]c3cc(F)ccc23)CC1
0.02

---

- Test system: tryptamine-induced bilateral tonic seizures and hyperaemia of the ears
- runDescription: Combined apomorphine-, tryptamine- and norepinephrine test in rats: tryptamine (TRY) part
- Format: in vivo, adult male Wistar rats
- conditionsUsed: Rattus norvegicus, 1.5 h; compound subcutaneously or orally; 40 mg/kg tryptamine i.v. at 90 minutes; bilateral tonic seizures; dose which protects 50% of the animals; read-out: Combined test in rats; ED₅₀ in mg/kg (TRY)-convulsions
- Procedure: The combined apomorphine (APO)-, tryptamine (TRY)- and norepinephrine (NOR) test in rats. The experimental animals used in this test were adult male Wistar rats (weight 240 ± 10g). After an overnight fast the animals were treated subcutaneously or orally with an aqueous solution of the compound under investigation (1ml/100g body weight) (time = zero) and put in isolated observation cages. […]
Please provide measured ED50 for the entries that follow.

Respond only with ED50 recorded for Cc1nc2ccccn2c(=O)c1CCN1CCN(c2n[nH]c3cc(F)ccc23)CC1
0.08 mg/kg

Respond only with ED50 recorded for Cc1nc2ccccn2c(=O)c1CCN1CCN(c2noc3cc(F)ccc23)CC1
0.08 mg/kg

Respond only with ED50 recorded for Cc1nc2n(c(=O)c1CCN1CCN(c3nsc4ccccc34)CC1)CCCC2C (stereo not shown)
0.04 mg/kg

Respond only with ED50 recorded for Cc1nc2ccccn2c(=O)c1CCN1CCN(c2nsc3ccccc23)CC1
0.08 mg/kg

Respond only with ED50 recorded for Cc1nc2n(c(=O)c1CCN1CCN(c3nsc4ccccc34)CC1)CCS2
0.02 mg/kg

Respond only with ED50 recorded for Cc1nc2scc(C)n2c(=O)c1CCN1CCN(c2n[nH]c3ccccc23)CC1
0.04 mg/kg

Respond only with ED50 recorded for Cc1nc2sccn2c(=O)c1CCN1CCN(c2n[nH]c3cc(F)ccc23)CC1
0.02 mg/kg

Respond only with ED50 recorded for Cc1nc2n(c(=O)c1CCN1CCN(c3noc4cc(F)ccc34)CC1)CCS2
0.005 mg/kg

Respond only with ED50 recorded for Cc1nc2sccn2c(=O)c1CCN1CCN(c2noc3ccccc23)CC1
0.02 mg/kg

Respond only with ED50 recorded for Cc1nc2n(c(=O)c1CCN1CCN(c3noc4cc(F)ccc34)CC1)CCCC2
0.08 mg/kg

Respond only with ED50 recorded for Cc1nc2c(C)cccn2c(=O)c1CCN1CCN(c2noc3ccccc23)CC1
0.08 mg/kg

Respond only with ED50 recorded for Cc1nc2sccn2c(=O)c1CCN1CCN(c2n[nH]c3ccccc23)CC1
0.08 mg/kg

Respond only with ED50 recorded for Cc1nc2n(c(=O)c1CCN1CCN(c3noc4ccccc34)CC1)CCS2
0.03 mg/kg

Respond only with ED50 recorded for Cc1nc2scc(C)n2c(=O)c1CCN1CCN(c2noc3cc(F)ccc23)CC1
0.04 mg/kg

Respond only with ED50 recorded for Cc1nc2n(c(=O)c1CCN1CCN(c3n[nH]c4cc(F)ccc34)CC1)CCCC2C (stereo not shown)
0.08 mg/kg

Respond only with ED50 recorded for Cc1nc2c(C)cccn2c(=O)c1CCN1CCN(c2n[nH]c3cc(F)ccc23)CC1
0.08 mg/kg
